molecular target: T1, cynomolgus serum albumin (cynomolgus); test: Octet biolayer interferometry, biotinylated albumin on SA sensors, pH 6.0
T1 construct: also called CSA; cyno serum albumin
T1 sequence (A2V9Z4 25-608): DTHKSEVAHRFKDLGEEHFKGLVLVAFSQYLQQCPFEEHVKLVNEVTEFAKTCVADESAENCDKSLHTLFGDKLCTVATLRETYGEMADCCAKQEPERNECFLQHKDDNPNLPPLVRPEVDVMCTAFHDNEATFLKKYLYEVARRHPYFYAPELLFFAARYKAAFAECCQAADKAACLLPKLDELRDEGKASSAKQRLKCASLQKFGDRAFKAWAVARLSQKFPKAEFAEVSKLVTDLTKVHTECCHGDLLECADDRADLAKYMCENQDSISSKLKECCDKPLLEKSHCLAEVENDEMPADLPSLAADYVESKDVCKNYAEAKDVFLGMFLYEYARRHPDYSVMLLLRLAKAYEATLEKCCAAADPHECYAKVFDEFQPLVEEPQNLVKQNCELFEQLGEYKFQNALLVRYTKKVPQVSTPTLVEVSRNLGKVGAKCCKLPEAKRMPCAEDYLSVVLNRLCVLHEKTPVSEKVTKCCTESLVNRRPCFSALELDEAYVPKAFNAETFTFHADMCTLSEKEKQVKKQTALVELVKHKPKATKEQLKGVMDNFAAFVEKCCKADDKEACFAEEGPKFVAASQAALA
Readout kind: koff (s⁻¹)
One number for each entry, in s⁻¹.

[[record]]
binder = "HSA-36 (designed binder) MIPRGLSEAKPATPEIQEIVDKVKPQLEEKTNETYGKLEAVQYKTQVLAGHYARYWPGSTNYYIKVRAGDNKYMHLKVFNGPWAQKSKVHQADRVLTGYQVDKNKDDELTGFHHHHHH"
readout_kind = "koff"
meas_value = 0.0123

[[record]]
binder = "HSA-20 (designed binder) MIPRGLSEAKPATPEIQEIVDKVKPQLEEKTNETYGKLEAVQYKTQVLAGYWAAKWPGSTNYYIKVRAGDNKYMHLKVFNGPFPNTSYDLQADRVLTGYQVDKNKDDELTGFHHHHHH"
readout_kind = "koff"
meas_value = 0.00611

[[record]]
binder = "HSA-41 (designed binder, also called HSA-41 parent; HSA-41 AH parent) MIPRGLSEAKPATPEIQEIVDKVKPQLEEKTNETYGKLEAVQYKTQVLANFFQRRWPGSTNYYIKVRAGDNKYMHLKVFNGPWKFRNTDRGADRVLTGYQVDKNKDDELTGFHHHHHH"
readout_kind = "koff"
meas_value = 0.00717


Kindly review the next binder as well.
Query HSA-31 (designed binder) MIPRGLSEAKPATPEIQEIVDKVKPQLEEKTNETYGKLEAVQYKTQVLAVWGPEYQHQSTNYYIKVRAGDNKYMHLKVFNGPNAGWPLVPEADRVLTGYQVDKNKDDELTGFHHHHHH yields koff of 0.00218
